Data provenance: paper PMC5540273

tested on: RSK3(Kin.Dom.1-N-terminal); construct: gene RPS6KA2; conditions: concentration: 1 μM,replicates: in singlicate; n = 1;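 also: KINOMEscan kinase panel screen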
assay endpoint: %Inh (%)

>>> print(df.to_string())
                                   compound  measure_unit  quantitative_readout
0  CCN(CC)CCCCNc1ncc2cc(-c3c(Cl)cccc3Cl)c(NC(=O)NC(C)(C)C)nc2n1             %                     0
1   CC(C)Nc1cc(-c2ccc3c(N)n[nH]c3c2)nc(N)n1             %                    18
2  CNC(=O)c1ccccc1Sc1ccc2c(/C=C/c3ccccn3)n[nH]c2c1             %                    11
3  Cl.Cl.Nc1nc(-c2ccc3c(N)n[nH]c3c2)cc(N2CCCC(NC(=O)c3ccccc3)C2)n1 (centres unmarked)             %                    32
4  C[C@H]1Oc2cc(cnc2N)-c2c(nn(C)c2C#N)CN(C)C(=O)c2ccc(F)cc21             %                     5
5  CN(C)CCOc1ccc(-c2cc(-c3c[nH]nc3-c3ccccn3)ccn2)cc1             %                    84
6  O=C(NCCCN1CCOC1=O)c1cnc(NCc2cc(Cl)ccc2Cl)nc1NC1CCCC1             %                    67
7  Cc1ccc(-n2nc(C(C)(C)C)cc2NC(=O)Nc2ccc(OCCN3CCOCC3)c3ccccc23)cc1             %                    54
